Kindly state log10 of EC50 for each of the entries shown.
Molecular target: CXCR7 (Homo sapiens (Human), UniProt P25106)
Sequence (P25106 whole entry): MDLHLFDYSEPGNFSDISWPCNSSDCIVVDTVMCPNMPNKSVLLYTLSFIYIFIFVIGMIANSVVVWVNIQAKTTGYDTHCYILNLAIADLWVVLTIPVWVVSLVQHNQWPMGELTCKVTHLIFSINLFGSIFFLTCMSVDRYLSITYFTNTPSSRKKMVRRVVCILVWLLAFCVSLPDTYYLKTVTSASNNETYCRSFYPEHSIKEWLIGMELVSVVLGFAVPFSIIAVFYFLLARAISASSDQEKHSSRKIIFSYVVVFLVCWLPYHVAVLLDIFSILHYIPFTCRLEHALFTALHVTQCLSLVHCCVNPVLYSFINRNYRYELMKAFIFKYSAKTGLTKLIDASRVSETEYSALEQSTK
Sequence (P32121 whole entry partner): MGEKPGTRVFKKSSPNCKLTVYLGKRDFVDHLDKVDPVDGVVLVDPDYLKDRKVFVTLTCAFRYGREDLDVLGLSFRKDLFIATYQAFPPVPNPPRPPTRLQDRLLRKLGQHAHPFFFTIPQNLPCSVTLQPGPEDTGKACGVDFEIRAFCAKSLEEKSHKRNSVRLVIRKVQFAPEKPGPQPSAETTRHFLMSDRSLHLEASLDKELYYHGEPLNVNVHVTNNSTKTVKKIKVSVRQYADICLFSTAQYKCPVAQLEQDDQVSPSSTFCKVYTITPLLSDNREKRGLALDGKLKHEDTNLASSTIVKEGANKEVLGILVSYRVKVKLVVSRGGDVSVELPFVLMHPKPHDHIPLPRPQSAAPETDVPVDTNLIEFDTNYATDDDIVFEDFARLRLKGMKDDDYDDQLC
Experiment: PathHunter CHO-K1 CXCR7 β-arrestin assay (agonistic activity)
Conditions: β-arrestin recruitment in PathHunter CHO-K1 CXCR7 β-arrestin cells, 90 minutes at 37° C., geometric mean values
Procedure: The CXCI12 receptor and CXCR7 agonistic activities of the compounds of formula (I) are determined in accordance with the following experimental method. The assay is using the PathHunter™ CHO-K1 CXCR7 β-arrestin cell line from DiscoverX. The system is based on the Enzyme Fragment Complementation Technology. Two complementing fragments of the β-galactosidase enzyme are expressed within stably transfected cells. […]
log10 EC50, nM

# log10 of EC50 lookup, item CCN1CCOc2c(cccc2NCC(=O)N(CCN(C)C)Cc2cnc(C(F)(F)F)s2)C1 2.63

# log10 of EC50 lookup, item CC(C)(C)NCCN(Cc1ncccc1C(F)(F)F)C(=O)CNc1cccc2c1CN(CC1CC1)CCO2 0.60

# log10 of EC50 lookup, item CCN1CCOc2c(cccc2NCC(=O)N(CCN(C)C)Cc2ccccc2C(F)(F)F)C1 0.85

# log10 of EC50 lookup, item O=C(CNc1cccc2c1OCCN(CC1CC1)C2=O)N(CCN1CCCC1)Cc1ncccc1C(F)(F)F 0.85

# log10 of EC50 lookup, item CN(C)CCN(Cc1ccccc1C(F)(F)F)C(=O)CNc1cccc2c1OCCN(CC1CC1)C2 0.60

Lab note: each compound below needs its log10 of EC50 filled in.
1. CCN1CCOc2c(cccc2NCC(=O)N(CCN(C)C)Cc2ncccc2C)C1
2. CN(C)CCN(Cc1ccccc1C(F)(F)F)C(=O)CNc1cccc2c1C(=O)N(CC1CC1)CCO2
3. CN(C)CCN(Cc1ccccc1C(F)(F)F)C(=O)CNc1cccc2c1CCN(C(=O)C(F)(F)F)CC2
4. CN(C)CCN(Cc1ccccc1C(F)(F)F)C(=O)CNc1cccc2c1OCCN(CC1CC1)C2=O
5. CCN1CCOc2c(cccc2NCC(=O)N(CCNC(C)C)Cc2ccccc2C(F)(F)F)C1
6. CC(C)NCCN(Cc1ccccc1C(F)(F)F)C(=O)CNc1cccc2c1CN(CC1CC1)CCO2
7. O=C(CNc1cccc2c1OCC(=O)N(CC1CC1)C2)N(CCN1CCCC1)Cc1ncccc1C(F)(F)F

1.77
0.60
0.60
0.95
0.60
0.70
1.26

Lab note: each compound below needs its log10 of EC50 filled in.
1. CCCN1CCOc2c(cccc2NCC(=O)N(CCN(C)C)Cc2ccccc2C(F)(F)F)C1
2. CC(C)NCCN(Cc1ccccc1C(F)(F)F)C(=O)CNc1cccc2c1N(C)CCN(CC1CC1)C2=O
3. CC(C)CN1CCOc2c(cccc2NCC(=O)N(CCN2CCCC2)Cc2ccccc2Cl)C1
4. CC(C)(C)NCCN(Cc1ccccc1C(F)(F)F)C(=O)CNc1cccc2c1C(=O)N(CC1CC1)CCO2
5. CCN1CCN(CC)c2c(NCC(=O)N(CCN3CCOCC3)Cc3ncccc3C(F)(F)F)cccc2C1=O

1: 0.60; 2: 0.70; 3: 1.04; 4: 0.48; 5: 2.63
